Could you please report measured EC50 for the items listed next?
- measurement_target: T1, full-length beta-Catenin (Uniprot ID P35222) (Homo sapiens (Human), UniProt P35222 1-781)
- T1 construct: Used full-length in the FP and AlphaScreen assays; also called B-Catenin; bCat
- T1 sequence: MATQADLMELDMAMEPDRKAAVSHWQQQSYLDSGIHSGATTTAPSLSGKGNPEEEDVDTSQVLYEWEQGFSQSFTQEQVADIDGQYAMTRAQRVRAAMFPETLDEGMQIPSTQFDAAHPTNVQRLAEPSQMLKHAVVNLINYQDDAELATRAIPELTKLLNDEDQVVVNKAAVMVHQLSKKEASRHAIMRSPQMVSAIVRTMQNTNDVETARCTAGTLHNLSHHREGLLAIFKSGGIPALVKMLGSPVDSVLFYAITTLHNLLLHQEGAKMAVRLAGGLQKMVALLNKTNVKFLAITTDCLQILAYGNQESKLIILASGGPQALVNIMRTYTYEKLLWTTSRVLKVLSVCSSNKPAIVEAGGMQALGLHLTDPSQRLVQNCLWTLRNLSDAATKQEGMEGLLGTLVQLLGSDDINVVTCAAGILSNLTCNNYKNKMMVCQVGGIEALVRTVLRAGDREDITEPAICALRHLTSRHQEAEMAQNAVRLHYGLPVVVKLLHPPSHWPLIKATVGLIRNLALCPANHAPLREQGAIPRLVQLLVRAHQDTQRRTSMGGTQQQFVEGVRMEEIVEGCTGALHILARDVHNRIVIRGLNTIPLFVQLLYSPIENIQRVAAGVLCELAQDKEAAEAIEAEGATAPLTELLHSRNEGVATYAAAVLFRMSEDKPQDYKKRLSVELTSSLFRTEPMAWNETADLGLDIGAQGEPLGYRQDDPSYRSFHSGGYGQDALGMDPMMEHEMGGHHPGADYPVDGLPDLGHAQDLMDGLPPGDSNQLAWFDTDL
- assay_summary: fluorescence polarization competition; full-length beta-catenin + 5FAM-TCF4(10-53) probe as competitor; peptide titrated
Starred links: 1 amine or outer side, 2 acyl side, 3 side chain; linkers in the order of their positions; H or OH if unused. Positions of bridges follow the written chain, without caps; N, C: chain ends. Non-standard residues stand in square brackets, D forms with d. Primed or numbered codes have the meaning given here. B5(4) = 2,2-bis(4-pentenyl)glycine = 2-amino-2-(pent-4-en-1-yl)hept-6-enoic acid (stitching residue), C=CCCCC(CCCC=C)(N[*:1])C(=O)[*:2]; B5(5) = 2,2-bis(4-pentenyl)glycine, 2-amino-2-(pent-4-en-1-yl)hept-6-enoic acid (stitching residue), C=CCCCC(CCCC=C)(N[*:1])C(=O)[*:2]; Phe(3,4-F2) = N[C@@H](Cc1ccc(F)c(F)c1)C(=O)O; 2Nal = N[C@@H](Cc1ccc2ccccc2c1)C(=O)O; αAllylPro = C=CC[C@@]1(C(=O)O)CCCN1; S8 = C=CCCCCCC[C@](C)(N)C(=O)O
# output: bare number, implied unit nM

Looking for the measured EC50 of Ac-[αAllylPro]DI[B5(5)]DEAAFV[S8]FWH-NH2 (staple 1-4, 4-11, Stapled peptide composition) [I-176] , can you help?
1990

Looking for the measured EC50 of Ac-[αAllylPro]DA[B5(4)]DEAA[Phe(3,4-F2)]V[S8]F[2Nal]Q-NH2 (staple 1-4, 4-11, Stapled peptide composition) [I-184] , can you help?
3110

Looking for the measured EC50 of XDAXDEAAFQXFWH (not fully specified; As printed: Ac-PL3-Asp-Ala-B5-Asp-Glu-Ala-Ala-Phe-Gln-S8-Phe-Trp-His-NH2. N-terminal Ac; C-terminal amide; PL3 (1), B5 (4), S8 (11) stapled by olefin metathesis (PL3-B5 and B5-S8), Stapled peptide composition) [I-178] , can you help?
1630
